- System: UACC-62 melanoma
- Assay details: NCI tumour cell line growth inhibition, 384-well format; in the data active = GI50 below about 0.43 µM; inactive = the rest
Answer with one of the outcomes 1.0 (active), 0.0 (inactive)

Input line: Which outcome was entered for the compound CC[C@H](Nc1ncnc2nc[nH]c12)c1nc2cccc(F)c2c(=O)n1-c1ccccc1 in this test?
Output line: 0.0

Input line: Now give it for O=C(NOC[C@H](O)CO)c1ccc(F)c(F)c1Nc1ccc(I)cc1F too.
Output line: 1.0

Input line: Now give it for CC(C)c1c(-c2ccccc2)nc2c(C#N)c[nH]n2c1=O too.
Output line: 0.0

Now look at this one.
Input line: Which outcome was entered for the compound Clc1ccc(C(c2ccccc2Cl)C(Cl)Cl)cc1 (centres undefined) in this test?
Output line: 0.0

---

- Tested on: HL-60(TB) leukemia
- Assay details: NCI tumour cell line growth inhibition, 384-well format
TGI overview
Give the value in nM but do not write nM after it.

Reference set (2 entries):
Input line: Bench note: what TGI did CC(C)Nc1cc(-c2c[nH]c(C(=O)N[C@H](CO)c3cccc(Cl)c3)c2)c(Cl)cn1 show?
Output line: 1170

Input line: Now give it for CC[C@H](Nc1ncnc2nc[nH]c12)c1nc2cccc(F)c2c(=O)n1-c1ccccc1 too.
Output line: 17900

Now for another entry.
Input line: Bench note: what TGI did CC(C)c1cnn2c(NCc3ccccc3)cc(NC[C@H]3CCNC[C@@H]3O)nc12 show?
Output line: 291

---

GI50 overview
- System: OVCAR-3 ovarian
- Assay details: NCI tumour cell line growth inhibition, 384-well format

Reference set (3 entries):
Input line: Param readout= GI50; system= OVCAR-3 ovarian; entry= CC(C)c1cnn2c(NCc3ccccc3)cc(NC[C@H]3CCNC[C@@H]3O)nc12 ; returns value.
Output line: 0.105 µM

Input line: Now give it for Clc1ccc(C(c2ccccc2Cl)C(Cl)Cl)cc1 (centres undefined) too.
Output line: 15.5 µM

Input line: Now give it for CC(C)Nc1cc(-c2c[nH]c(C(=O)N[C@H](CO)c3cccc(Cl)c3)c2)c(Cl)cn1 too.
Output line: 4.95 µM

Now for another entry.
Input line: Param readout= GI50; system= OVCAR-3 ovarian; entry= CC(C)c1c(-c2ccccc2)nc2c(C#N)c[nH]n2c1=O ; returns value.
Output line: 18 µM

---

- System: RXF 393 renal
- Assay details: NCI tumour cell line growth inhibition, 384-well format
Test readout: TGI (µM)
Give the value in µM but do not write µM after it.

Input line: Bench note: what TGI did CC(C)c1cnn2c(NCc3ccccc3)cc(NC[C@H]3CCNC[C@@H]3O)nc12 show?
Output line: 0.635

Input line: Now give it for CC[C@H](Nc1ncnc2nc[nH]c12)c1nc2cccc(F)c2c(=O)n1-c1ccccc1 too.
Output line: 9.61

Now for another entry.
Input line: Bench note: what TGI did Clc1ccc(C(c2ccccc2Cl)C(Cl)Cl)cc1 (centres undefined) show?
Output line: 26.1

---

- Tested on: NCI-H226 lung
- Assay details: NCI tumour cell line growth inhibition, 384-well format; in the data active = GI50 below about 0.43 µM; inactive = the rest
Answer with one of the outcomes class 1 (active), class 0 (inactive)

Solved entries:
Input line: Which outcome was entered for the molecule CC(C)c1cnn2c(NCc3ccccc3)cc(NC[C@H]3CCNC[C@@H]3O)nc12 in this test?
Output line: class 1

Input line: Now give it for CC(C)c1c(-c2ccccc2)nc2c(C#N)c[nH]n2c1=O too.
Output line: class 0

Input line: Now give it for CN(Cc1cnc2nc(N)nc(N)c2n1)c1ccc(C(=O)N[C@@H](CCC(=O)O)C(=O)O)cc1 too.
Output line: class 1

Now look at this one.
Input line: Which outcome was entered for the molecule O=C(NOC[C@H](O)CO)c1ccc(F)c(F)c1Nc1ccc(I)cc1F in this test?
Output line: class 1

---

TGI overview
- System: SW-620 colon
- Assay details: NCI tumour cell line growth inhibition, 384-well format

Reference set (3 entries):
Input line: Param readout= TGI; system= SW-620 colon; entry= CC(C)c1c(-c2ccccc2)nc2c(C#N)c[nH]n2c1=O ; returns value.
Output line: > 100 µM

Input line: Now give it for Clc1ccc(C(c2ccccc2Cl)C(Cl)Cl)cc1 (centres undefined) too.
Output line: 28.7 µM

Input line: Now give it for CC(C)c1cnn2c(NCc3ccccc3)cc(NC[C@H]3CCNC[C@@H]3O)nc12 too.
Output line: 1.66 µM

Now for another entry.
Input line: Param readout= TGI; system= SW-620 colon; entry= O=C(NOC[C@H](O)CO)c1ccc(F)c(F)c1Nc1ccc(I)cc1F ; returns value.
Output line: > 100 µM

---

GI50 overview
- System: PC-3 prostate
- Assay details: NCI tumour cell line growth inhibition, 384-well format

Input line: Bench note: what GI50 did CC(C)c1c(-c2ccccc2)nc2c(C#N)c[nH]n2c1=O show?
Output line: 37.2 µM

Input line: Now give it for Clc1ccc(C(c2ccccc2Cl)C(Cl)Cl)cc1 (centres undefined) too.
Output line: 14.3 µM

Input line: Now give it for CC(C)c1cnn2c(NCc3ccccc3)cc(NC[C@H]3CCNC[C@@H]3O)nc12 too.
Output line: 0.271 µM

Input line: Now give it for CC[C@H](Nc1ncnc2nc[nH]c12)c1nc2cccc(F)c2c(=O)n1-c1ccccc1 too.
Output line: 6.18 µM

---

- System: NCI-H322M lung
- Assay details: NCI tumour cell line growth inhibition, 384-well format
Test readout: TGI

Reference set (3 entries):
Input line: Bench note: what TGI did CN(Cc1cnc2nc(N)nc(N)c2n1)c1ccc(C(=O)N[C@@H](CCC(=O)O)C(=O)O)cc1 show?
Output line: 22.6 nM

Input line: Now give it for Clc1ccc(C(c2ccccc2Cl)C(Cl)Cl)cc1 (centres undefined) too.
Output line: 33200 nM

Input line: Now give it for CC(C)c1cnn2c(NCc3ccccc3)cc(NC[C@H]3CCNC[C@@H]3O)nc12 too.
Output line: 975 nM

New cases:
Input line: Bench note: what TGI did O=C(NOC[C@H](O)CO)c1ccc(F)c(F)c1Nc1ccc(I)cc1F show?
Output line: > 100000 nM

---

- Tested on: BT-549 breast
- Assay details: NCI tumour cell line growth inhibition, 384-well format
Test readout: TGI (µM)
Give the value in µM but do not write µM after it.

Reference set (2 entries):
Input line: Param readout= TGI; system= BT-549 breast; entry= Clc1ccc(C(c2ccccc2Cl)C(Cl)Cl)cc1 (centres undefined) ; returns value.
Output line: 32.6

Input line: Now give it for CC(C)c1cnn2c(NCc3ccccc3)cc(NC[C@H]3CCNC[C@@H]3O)nc12 too.
Output line: 0.519

Now for another entry.
Input line: Param readout= TGI; system= BT-549 breast; entry= CC[C@H](Nc1ncnc2nc[nH]c12)c1nc2cccc(F)c2c(=O)n1-c1ccccc1 ; returns value.
Output line: 48.1
